Data origin: the supplement of paper PMC7661543

System: SKBR3
Experiment: relative cell number vs DMSO control (72 h) (% of DMSO); higher = less growth inhibition (more cells)
Conditions: sgRNA knockout: sgNT, 10 nM
List of relative cell number values.
API doc: respond with a numeric literal and nothing else, no unit.

{"COMPOUND": "Cc1ccc(NC(=O)c2ccc(CN3CCN(C)CC3)cc2)cc1Nc1nc(-c2cccnc2)cs1", "PARAMETER": "relative cell number", "RESULT_NUMBER": 78.7}
{"COMPOUND": "CC[C@@]1(O)C(=O)OCc2c1cc1n(c2=O)Cc2cc3c(CN(C)C)c(O)ccc3nc2-1", "PARAMETER": "relative cell number", "RESULT_NUMBER": 58.7}
{"COMPOUND": "CC(C)CC(=O)Nc1n[nH]c2c1CN(C(=O)C1CCN(C)CC1)C2(C)C", "PARAMETER": "relative cell number", "RESULT_NUMBER": 108}
{"COMPOUND": "O=C(/C=C/c1ccc(O)cc1)c1ccc(O)cc1O", "PARAMETER": "relative cell number", "RESULT_NUMBER": 83.1}
{"COMPOUND": "CN/C(=N\\CCSCc1nc[nH]c1C)NC#N", "PARAMETER": "relative cell number", "RESULT_NUMBER": 78.8}
{"COMPOUND": "CC(=O)Nc1nc(C)c(-c2ccc(Cl)c(S(=O)(=O)NCCO)c2)s1", "PARAMETER": "relative cell number", "RESULT_NUMBER": 112}

Look up and report measured relative cell number for this entry: C[C@@]1(C(=O)Nc2ccc(F)nc2)CCCN1c1nc(Nc2cc(C3CC3)n[nH]2)c2cccn2n1 72

Look up and report measured relative cell number for this entry: Cc1ccc(Nc2nccc(N(C)c3ccc4c(C)n(C)nc4c3)n2)cc1S(N)(=O)=O 96.1
